System: HIV
procedure.text: microbe, parasite or virus in culture
setup.conditions: selectivity index, ratio of CC50 to IC50, as log difference
endpoint.name: pSI (pCC50-pIC50)
Answer with the value's number alone.

Take a look at these entries with their results.
given.smiles: CC(=O)c1cccc(-c2cc(C)c(Nc3ccnc(Nc4ccc(C#N)cc4)n3)c(C)c2)c1
measured.target: HIV
endpoint.name: pSI (pCC50-pIC50)
measured.value: −3.2
--
given.smiles: Cc1cc(/C=C/C#N)cc(-c2ccco2)c1Nc1ccnc(Nc2ccc(C#N)cc2)n1
measured.target: HIV
endpoint.name: pSI (pCC50-pIC50)
measured.value: −3.9

// returns reported pSI (pCC50-pIC50) for input `C/C(C#N)=C/c1cc(C)c(Oc2ccnc(Nc3ccc(C#N)cc3)n2)c(C)c1` −3.1
